System: NQO1 mRNA in BEAS-2B cells
Test: qPCR-based BEAS-2B cell assay (NQO1 mRNA)
Design: species or system human
Details: Homo sapiens, BEAS-2B, mean ± SEM, 2-4 independent experiments
metric_name: EC50

compound	assay_value
Cc1cc2c(cc1C(CC(=O)O)c1ccc3ccc(OCC(=O)NC4CCCCCC4)cc3c1)OCCO2 (centres unmarked) [Compound 28]	0.0601 µM

# evaluate next
Which EC50 value is on record for Cc1cc2c(cc1C(CC(=O)O)c1ccc3ccc(OCC(=O)NC4CCCCCC4)cc3c1)OCO2 (centres unmarked) [Compound 24] ? 0.11 µM

###

Biological target: UniProt:Q14145
Sequence (Q14145 321-609): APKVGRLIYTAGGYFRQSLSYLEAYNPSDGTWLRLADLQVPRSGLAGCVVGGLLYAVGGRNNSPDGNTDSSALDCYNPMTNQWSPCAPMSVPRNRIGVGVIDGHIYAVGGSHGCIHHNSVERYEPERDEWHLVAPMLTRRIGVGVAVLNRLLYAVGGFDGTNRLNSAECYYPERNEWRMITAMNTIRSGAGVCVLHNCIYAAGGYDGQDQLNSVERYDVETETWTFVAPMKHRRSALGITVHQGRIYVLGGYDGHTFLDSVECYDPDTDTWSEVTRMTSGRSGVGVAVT
Assay: Fluorescence polarization (FP) competition assay with Cy5-Nrf2 peptide probe
Details: from FP Ki
Readings of ligand efficiency (LE) for the listed compounds

Some compounds with recorded ligand efficiency (LE):
compound	assay_value
COc1ccc(C(CC(=O)O)c2ccc3ccc(OCC(=O)NC4CCCCCC4)cc3c2)cc1 (stereo not drawn) [Compound 13]	0.29
O=C(O)CC(c1ccc2c(c1)OCO2)c1ccc2ccc(OCC(=O)NC3CCCCCC3)cc2c1 (stereo not drawn) [Compound 19]	0.29

Which ligand efficiency (LE) value is on record for Cc1cc2c(cc1C(CC(=O)O)c1ccc3ccc(OCC(=O)NC4CCCCCC4)cc3c1)OCCO2 (stereo not drawn) [Compound 28] ? 0.29

###

Test system: differentiated THP1 macrophages (WT)
Conditions: Table S3; THP-1, 12 h
Counter-ions that a name gives are not always drawn.
metric_name: SOCS1 FC

Some compounds with recorded SOCS1 FC:
compound	assay_value
Cc1cc2c(cc1C(CC(=O)O)c1ccc3ccc(OCC(=O)NC4CCCCCC4)cc3c1)OCO2 (stereo not drawn)	2,11 fold
C[S+]([O-])CCCCN=C=S (stereo not drawn)	2,19 fold
COC(=O)[C@]12CCC(C)(C)C[C@H]1[C@H]1C(=O)C=C3[C@@]4(C)C=C(C#N)C(=O)C(C)(C)[C@@H]4CC[C@@]3(C)[C@]1(C)CC2	0,37 fold
Cc1cc2c(cc1C(CC(=O)O)c1ccc3ccc(OCC(=O)NC4CCCCCC4)cc3c1)OCCO2 (stereo not drawn)	1,95 fold
COC(=O)/C=C/C(=O)OC [DMF, dimethyl fumarate]	5,21 fold

# evaluate next
Which SOCS1 FC value is on record for COc1cc([C@@H](CC(=O)O)c2ccc(C)c(CN3C[C@@H](C)Oc4ccccc4S3(=O)=O)c2)cc2nnn(C)c12 ? 2,43 fold

###

System: differentiated THP1 macrophages (WT)
Settings: Table S3; THP-1, 12 h
Structures can show the parent of a compound that is named as a salt.
metric_name: IRF3 FC

compound	IRF3 FC
Cc1cc2c(cc1C(CC(=O)O)c1ccc3ccc(OCC(=O)NC4CCCCCC4)cc3c1)OCO2 (stereo not drawn) [Compound 24]	0,96 fold
COC(=O)[C@]12CCC(C)(C)C[C@H]1[C@H]1C(=O)C=C3[C@@]4(C)C=C(C#N)C(=O)C(C)(C)[C@@H]4CC[C@@]3(C)[C@]1(C)CC2 [CDDO-Me, bardoxolone methyl]	0,95 fold

Which IRF3 FC value is on record for C[S+]([O-])CCCCN=C=S (stereo not drawn) [SFN, sulforaphane] ? 1,48 fold

Entry COc1cc([C@@H](CC(=O)O)c2ccc(C)c(CN3C[C@@H](C)Oc4ccccc4S3(=O)=O)c2)cc2nnn(C)c12 [KI-696] please 1,43 fold

Entry COC(=O)/C=C/C(=O)OC [DMF, dimethyl fumarate] please 1,15 fold

Entry Cc1cc2c(cc1C(CC(=O)O)c1ccc3ccc(OCC(=O)NC4CCCCCC4)cc3c1)OCCO2 (stereo not drawn) [Compound 28] please 1,03 fold
